The measured values listed here are drawn from patent US20080050375A1.

- target system: T1, human TGF-beta 1 (R&D Systems, Cat # 240-B/CF) (human, UniProt P01137 279-390)
- T1 construct: They match K95 and residues 58-61 of mature numbering; also called TGF-β1; mature TGF-β1
- T1 sequence (P01137 279-390 limits assumed): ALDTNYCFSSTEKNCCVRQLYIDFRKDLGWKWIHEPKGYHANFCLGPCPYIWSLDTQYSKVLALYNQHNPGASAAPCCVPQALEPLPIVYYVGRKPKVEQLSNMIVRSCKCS
- test name: calculated from KinExA Kd and kon
Give measured koff for each item. Keep answers brief.
Give just the numeric value; s⁻¹ need not be written.

Supply reported koff belonging to this binder: Fab 21D1 (Fab, V domains shown, Fab with human constant regions (kappa light chain) from M13 expression vectors) VH: QVQLVQSGAEVKKPGASVKVSCKASGYTFTDYNIHWVRQAPGQGLEWMGYIYPYDGETGYNQKFKSRVTMTTDTSTSTAYMELRSLRSDDTAVYYCARGYRWFAYWGQGTLVTVSS VL: DIQMTQSPSSLSASVGDRVTITCRASSSVPYMHWFQQKPGKAPKSLIYATSNPAYGVPSRFSGSGSGTDFTLTISSLQPEDFATYYCQQWDLNPPAFGQGTKLEIK
3.4e-06

Supply reported koff belonging to this binder: Fab DM4 (Fab, V domains shown, Fab with human constant regions (kappa light chain)) VH: QVQLVQSGAEVKKPGASVKVSCKASGYDFTDYNIHWVRQAPGQGLEWMGYIYPYDGETGYNQKFKSRVTMTTDTSTSTAYMELRSLRSDDTAVYYCARGYRWLAYWGQGTLVTVSS VL: DIQMTQSPSSLSASVGDRVTITCRASSSVSYMHWYQQKPGKAPKPLIYATSNLAYGVPSRFSGSGSGTDFTLTISSLQPEDFATYYCQQWDLNPPAFGQGTKLEIK
5.1e-06

Supply reported koff belonging to this binder: Fab 23A3 (Fab, V domains shown, Fab with human constant regions (kappa light chain)) VH: QVQLVQSGAEVKKPGASVKVSCKASGYDFTDYNMVWVRQAPGQGLEWMGSIYPYDGETGYNQKFKSRVTMTTDTSTSTAYMELRSLRSDDTAVYYCARGYRAFEYWGQGTLVTVSS VL: DIQMTQSPSSLSASVGDRVTITCRASSSVPYMHWYQQKPGKAPKLLIYATSNPAYGVPSRFSGSGSGTDFTLTISSLQPEDFATYYCQQWDLNPPAFGQGTKLEIK
1.9e-05

Supply reported koff belonging to this binder: Fab DM7 (Fab, V domains shown, Fab with human constant regions (kappa light chain)) VH: QVQLVQSGAEVKKPGASVKVSCKASGYDFTDYNMHWVRQAPGQGLEWMGYIYPYDGETGYNQKFKSRVTMTTDTSTSTAYMELRSLRSDDTAVYYCARGYRWLYYWGQGTLVTVSS VL: DIQMTQSPSSLSASVGDRVTITCRASSSVSYMHWYQQKPGKAPKPLIYATSNLAKGVPSRFSGSGSGTDFTLTISSLQPEDFATYYCQQWDLNPPAFGQGTKLEIK
2.3e-06
